Reference source: ChEMBL document CHEMBL1201862

Quick reference: GI50 of the listed items.
System: UACC-257
test-method-notes: NCI tumour cell line growth inhibition, 48 h
Activity calls are given as the source filed them. Cut-off read from the data, not from the text of the source: active = GI50 up to about 1.1 µM and inactive = higher.
measured-quantity: GI50

[[record]]
compound = "COC(=O)C(=O)C(C(=O)C(N)=O)c1nc2ccc(C(=O)c3ccccc3)cc2nc1O (stereo not drawn)"
tested_system = "UACC-257"
measured_quantity = "GI50"
reported_result = "> 100 µM (inactive)"

[[record]]
compound = "c1ccc(C2=NOC3C4CCC(C4)C23)cc1 (stereo not drawn)"
tested_system = "UACC-257"
measured_quantity = "GI50"
reported_result = "> 100 µM (inactive)"

[[record]]
compound = "C1=C(c2ccccc2)NC2=N[C@H]3CCCC[C@@H]3N2C1c1ccccc1 (stereo partly drawn)"
tested_system = "UACC-257"
measured_quantity = "GI50"
reported_result = "14.6 µM (inactive)"

[[record]]
compound = "CCc1cc(Cc2cc(Cl)c(NC(=O)C(=O)C3NC(=O)NC3=O)c(CC)c2)cc(Cl)c1NC(=O)C(=O)C1NC(=O)NC1=O (stereo not drawn)"
tested_system = "UACC-257"
measured_quantity = "GI50"
reported_result = "30.6 µM (inactive)"

[[record]]
compound = "COc1ccc(OC)c2c1C[C@@H]1C(C#N)N3[C@H](Cc4c(OC)ccc(OC)c4[C@@H]3C)C(=O)N1[C@H]2C (stereo partly drawn)"
tested_system = "UACC-257"
measured_quantity = "GI50"
reported_result = "2.51 µM (inactive)"

[[record]]
compound = "CN(C)CCNC(=O)c1cc([N+](=O)[O-])cc2ccc(-c3ccccc3)nc12"
tested_system = "UACC-257"
measured_quantity = "GI50"
reported_result = "5.75 µM (inactive)"

[[record]]
compound = "CCOc1cc2c(cc1O)CC[C@@H]1[C@@H]2CC[C@]2(C)C(OS(=O)OC3CC[C@@H]4[C@H]5CCc6cc(O)c(OCC)cc6[C@@H]5CC[C@@]34C)CC[C@@H]12 (stereo partly drawn)"
tested_system = "UACC-257"
measured_quantity = "GI50"
reported_result = "2.24 µM (inactive)"

[[record]]
compound = "O=c1cc(-c2ccccc2)[nH]c2cc(F)cc(F)c12"
tested_system = "UACC-257"
measured_quantity = "GI50"
reported_result = "40.1 µM (inactive)"


###

Tested on: T47D
test-method-notes: NCI tumour cell line growth inhibition, 48 h
The source made the active and inactive calls. Rule as the data show it: active = GI50 up to about 1.1 µM and inactive = higher.
Outcomes: active, inactive

[[record]]
molecule = "COC1=C2CC(C)CC(OC)C(OC(=O)CN)[C@H](C)/C=C(\\C)C(OC(N)=O)C(OC)/C=C\\C=C(/C)C(=O)NC(=CC1=O)C2=O (stereo partly drawn)"
group = "active"

[[record]]
molecule = "COc1cc(C(C[N+](=O)[O-])SC(C)=O)ccc1OCc1ccccc1 (stereo not drawn)"
group = "inactive"

[[record]]
molecule = "Fc1cc2nc3n(c2cc1F)C(c1c(F)cccc1F)SC3 (stereo not drawn)"
group = "inactive"


###

Tested on: A498
test-method-notes: NCI tumour cell line growth inhibition, 48 h
Calls of active or inactive are those of the source. Rule as the data show it: active = GI50 up to about 1.1 µM and inactive = higher.
measured-quantity: GI50

[[record]]
compound = "CCCCC(=O)Nc1ccc2c(C)cc(-c3ccc(-c4cc(-c5ccc(C)cc5)cc(-c5ccc(-c6cc(C)c7ccc(NC(=O)CCCC)nc7n6)cc5)n4)cc3)nc2n1"
reported_result = "> 100 µM (inactive)"

[[record]]
compound = "Cc1ccc(S(=O)(=O)NC(=O)NC(Cc2ccc(O)c(O)c2)C(=O)O)cc1 (centres undefined)"
reported_result = "> 100 µM (inactive)"

[[record]]
compound = "Cc1nc2c(c(=O)[nH]1)S/C(=C(/C#N)c1nc3ccccc3[nH]1)N2c1ccccc1"
reported_result = "> 100 µM (inactive)"

[[record]]
compound = "C[C@]12CC(C=O)C(=O)C(O)=C1CC[C@@H]1C2CC[C@@]2(C)C1CC[C@]2(C)O (some centres undefined)"
reported_result = "22.1 µM (inactive)"

[[record]]
compound = "O=c1c2ccccc2n2c(-c3ccccc3O)nnc2n1-c1ccccc1"
reported_result = "> 100 µM (inactive)"

[[record]]
compound = "C[C@H](NC1=CC(=O)C(N[C@@H](C)[C@H](O)c2ccccc2)=CC1=O)[C@H](O)c1ccccc1"
reported_result = "> 100 µM (inactive)"

[[record]]
compound = "CCOC(=O)N1[C@@H]2CCC[C@@H]2C(=O)[C@@H]2CCC[C@@H]21"
reported_result = "> 100 µM (inactive)"

[[record]]
compound = "CC(=O)SC(C[N+](=O)[O-])c1ccccc1 (centres undefined)"
reported_result = "5.43 µM (inactive)"

[[record]]
compound = "COc1ccc(/C=C/C(=O)C(C)C)cc1"
reported_result = "35.5 µM (inactive)"

